Cited source: the supplement of paper PMC10126150

List of switch fluorescence ratio values.
System: ATP;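 further: ATP exposure 15 min at 22 °C before imaging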
Experiment: switch fluorescence ratio, 500 uM ATP over buffer (Cy3 cluster intensity, sum of 5 cycles each) (fold (ratio)); higher = stronger signal-on switching upon ATP binding; sequences stand for … in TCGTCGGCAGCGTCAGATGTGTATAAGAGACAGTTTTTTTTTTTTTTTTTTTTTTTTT…TC
Assay Context: aptamer strand: ATP DNA aptamer (quencher-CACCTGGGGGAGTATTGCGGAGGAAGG + anchor), 100 nM annealed; ATP concentration: 500 uM
Just the number.

{"Entry Sequence": "GAGGCAAGTG", "switch fluorescence ratio": 1.12}
{"Entry Sequence": "ACACGTGGGA", "switch fluorescence ratio": 1.02}
{"Entry Sequence": "TGGGGTACGG", "switch fluorescence ratio": 1}
{"Entry Sequence": "GGTATGTTTT", "switch fluorescence ratio": 0.978}
{"Entry Sequence": "TAGGGACTAT", "switch fluorescence ratio": 1.02}

The recorded switch fluorescence ratio for CGGATTTATC is 1.01

The sequence listed as AACATCGTAC shows switch fluorescence ratio equal to 1.12

According to the records, this sequence CGACTGGAAC displays switch fluorescence ratio of 1.21

# sequence TACTTGGTT ; its switch fluorescence ratio = 1.01

Reported switch fluorescence ratio of GTTTGGGAGG : 0.963

Memo: ACGTTAGTCG , reported switch fluorescence ratio: 0.969

sequence CGGGATATGA , switch fluorescence ratio observed: 1.03

====

System: ATP;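 further: ATP exposure 15 min at 22 °C before imaging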
Experiment: switch fluorescence ratio, 500 uM ATP over buffer (Cy3 cluster intensity, sum of 5 cycles each) (fold (ratio)); higher = stronger signal-on switching upon ATP binding; sequences stand for … in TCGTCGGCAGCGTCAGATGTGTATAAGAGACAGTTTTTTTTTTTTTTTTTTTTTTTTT…TC
Assay Context: aptamer strand: ATP DNA aptamer (quencher-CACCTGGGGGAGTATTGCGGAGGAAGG + anchor), 100 nM annealed; ATP concentration: 500 uM
Below: a set of entries, each annotated with reported switch fluorescence ratio.
Respond using a number only.

switch fluorescence ratio in this record for AGGGACAGAC : 1.17

switch fluorescence ratio reported for this sequence GTATAAAGGG : 1.02

Measured switch fluorescence ratio, GGAGACGTTA : 1.02

Quick note, switch fluorescence ratio for TTTTTGCTAG landed at 0.986

So for ATTTTGAGGA , the logged switch fluorescence ratio turned out to be 1.02

In plain terms, GATGGGGCAC has a documented switch fluorescence ratio of 1.01

The sequence GGCTTGGTGT showed switch fluorescence ratio equal to 1

For AGTCGGGGGC the sequence record lists switch fluorescence ratio as 1.03

TTTTTCCTTG has a reported switch fluorescence ratio of 1.04

Just so you know, measured switch fluorescence ratio for TGGGTGCAAA came out at 1.01

Entry CGGAGGGGGG — recorded switch fluorescence ratio = 1.03

Record summary for GGGTGAATGT : reported switch fluorescence ratio = 0.993

For this sequence ( GGGTAAGGCT ), measured switch fluorescence ratio is 1.01

// switch fluorescence ratio lookup, sequence = CCCCATTCCG , result: 1.04

The reported value for TGATATGGGA in terms of switch fluorescence ratio is 1.01

====

Test system: ATP;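 further: ATP exposure 15 min at 22 °C before imaging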
Experiment: switch fluorescence ratio, 500 uM ATP over buffer (Cy3 cluster intensity, sum of 5 cycles each) (fold (ratio)); higher = stronger signal-on switching upon ATP binding; sequences stand for … in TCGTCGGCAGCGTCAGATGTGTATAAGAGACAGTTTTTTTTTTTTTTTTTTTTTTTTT…TC
Assay Context: aptamer strand: ATP DNA aptamer (quencher-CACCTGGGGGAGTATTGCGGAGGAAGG + anchor), 100 nM annealed; ATP concentration: 500 uM
Test Readout: switch fluorescence ratio
Give the figure only, with no unit attached.

{"Entry Sequence": "TACGGTGTGC", "switch fluorescence ratio": 0.989}
{"Entry Sequence": "TCGGGCTGGT", "switch fluorescence ratio": 0.977}

Sample ACGGGGGGAG ; switch fluorescence ratio observed: 1.01

Sure, the documented switch fluorescence ratio for ATGGACTATC is 1.03

====

# switch fluorescence ratio per entry
System: ATP;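 further: ATP exposure 15 min at 22 °C before imaging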
Experiment: switch fluorescence ratio, 500 uM ATP over buffer (Cy3 cluster intensity, sum of 5 cycles each) (fold (ratio)); higher = stronger signal-on switching upon ATP binding; sequences stand for … in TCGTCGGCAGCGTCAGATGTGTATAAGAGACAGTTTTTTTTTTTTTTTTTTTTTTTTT…TC
Assay Context: aptamer strand: ATP DNA aptamer (quencher-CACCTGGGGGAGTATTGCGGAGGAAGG + anchor), 100 nM annealed; ATP concentration: 500 uM
Please respond with just the number, no unit label.

{"Entry Sequence": "TAGGAGGGTT", "Reported Result": 0.987}

Lab note: measured switch fluorescence ratio of GGGGTATGCC was 1.01

switch fluorescence ratio in this record for ATTGGATAAT : 0.997

switch fluorescence ratio reading for TGGTAGTTTT : 0.99

Sample CGGGACAGCG ; switch fluorescence ratio observed: 1.01

Please fill in: switch fluorescence ratio reported for CGGCGGGGAG = 1

Record TGCTGGATTT , field switch fluorescence ratio: 0.991

switch fluorescence ratio reported for this sequence GGGTAGTCTG : 1

Measured switch fluorescence ratio of CAAGCGGATT : 1

Kindly note the recorded switch fluorescence ratio for TGGGGTACTT , which is 0.973

# sequence TATGGCCGCC ; its switch fluorescence ratio = 1.01

Record GAGATATTTA . Reported switch fluorescence ratio: 0.99

====

System: ATP;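 further: ATP exposure 15 min at 22 °C before imaging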
Experiment: switch fluorescence ratio, 500 uM ATP over buffer (Cy3 cluster intensity, sum of 5 cycles each) (fold (ratio)); higher = stronger signal-on switching upon ATP binding; sequences stand for … in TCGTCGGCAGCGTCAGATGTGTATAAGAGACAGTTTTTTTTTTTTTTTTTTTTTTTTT…TC
Assay Context: aptamer strand: ATP DNA aptamer (quencher-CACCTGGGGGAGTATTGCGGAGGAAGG + anchor), 100 nM annealed; ATP concentration: 500 uM
Test Readout: switch fluorescence ratio
Number only, no unit.

// known answers, use as guide
{"Entry Sequence": "GACGTCCCAG", "Reported Result": 0.966}
{"Entry Sequence": "GGGAGTTAAT", "Reported Result": 0.97}

Let us examine a further case.
The reported switch fluorescence ratio of the sequence TTCCCTTTTT was 1.03

====

Tested on: ATP;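 further: ATP exposure 15 min at 22 °C before imaging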
Experiment: switch fluorescence ratio, 500 uM ATP over buffer (Cy3 cluster intensity, sum of 5 cycles each) (fold (ratio)); higher = stronger signal-on switching upon ATP binding; sequences stand for … in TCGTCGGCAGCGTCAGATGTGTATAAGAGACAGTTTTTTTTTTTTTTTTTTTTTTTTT…TC
Assay Context: aptamer strand: ATP DNA aptamer (quencher-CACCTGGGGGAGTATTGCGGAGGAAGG + anchor), 100 nM annealed; ATP concentration: 500 uM
Test Readout: switch fluorescence ratio
Please give the numeric answer without any surrounding text.

Below are worked cases with known answers.
{"Entry Sequence": "CGTATAAGAG", "switch fluorescence ratio": 0.991}
{"Entry Sequence": "TCGGGGTGTA", "switch fluorescence ratio": 1}
{"Entry Sequence": "AAGGCGCTCT", "switch fluorescence ratio": 0.997}
{"Entry Sequence": "GATGAGCGCC", "switch fluorescence ratio": 1.03}
{"Entry Sequence": "TAGGTTGTGC", "switch fluorescence ratio": 0.976}
{"Entry Sequence": "TTAAGCCTTT", "switch fluorescence ratio": 1.02}
{"Entry Sequence": "CTTGAAAACT", "switch fluorescence ratio": 1.04}
{"Entry Sequence": "AATACTGGTT", "switch fluorescence ratio": 1.04}

The value of switch fluorescence ratio measured for the sequence ACGGGGTGCA turned out to be 0.99

====

System: ATP;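 further: ATP exposure 15 min at 22 °C before imaging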
Experiment: switch fluorescence ratio, 500 uM ATP over buffer (Cy3 cluster intensity, sum of 5 cycles each) (fold (ratio)); higher = stronger signal-on switching upon ATP binding; sequences stand for … in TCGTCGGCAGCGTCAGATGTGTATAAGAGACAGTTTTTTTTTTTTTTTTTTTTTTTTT…TC
Assay Context: aptamer strand: ATP DNA aptamer (quencher-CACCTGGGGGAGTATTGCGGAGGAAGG + anchor), 100 nM annealed; ATP concentration: 500 uM
Test Readout: switch fluorescence ratio
Respond using a number only.

{"Entry Sequence": "TATGGGGGTG", "switch fluorescence ratio": 1.05}

switch fluorescence ratio reported for this sequence CGGTAGGGGA : 1.02

Briefly, switch fluorescence ratio measured for GATGATCTAT : 1.01

====

Tested on: ATP;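 further: ATP exposure 15 min at 22 °C before imaging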
Experiment: switch fluorescence ratio, 500 uM ATP over buffer (Cy3 cluster intensity, sum of 5 cycles each) (fold (ratio)); higher = stronger signal-on switching upon ATP binding; sequences stand for … in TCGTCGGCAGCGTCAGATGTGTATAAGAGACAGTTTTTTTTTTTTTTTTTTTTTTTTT…TC
Assay Context: aptamer strand: ATP DNA aptamer (quencher-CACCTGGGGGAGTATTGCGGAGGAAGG + anchor), 100 nM annealed; ATP concentration: 500 uM
switch fluorescence ratio of 1 or higher: label 1. Under 1: label 0.

Check out these entries, answers already filled in.
{"Entry Sequence": "ATTAAGGGGA", "Target Desc": "ATP", "Assigned Class": "label 1"}
{"Entry Sequence": "AGTTTTTGTC", "Target Desc": "ATP", "Assigned Class": "label 0"}
{"Entry Sequence": "GCGGATGGTG", "Target Desc": "ATP", "Assigned Class": "label 1"}
{"Entry Sequence": "ATGGGTAGGG", "Target Desc": "ATP", "Assigned Class": "label 0"}
{"Entry Sequence": "AGAAAAAAGT", "Target Desc": "ATP", "Assigned Class": "label 1"}
{"Entry Sequence": "ACGGCATTGC", "Target Desc": "ATP", "Assigned Class": "label 1"}
{"Entry Sequence": "TTGTCGGGTG", "Target Desc": "ATP", "Assigned Class": "label 1"}
{"Entry Sequence": "TTTTACGTTT", "Target Desc": "ATP", "Assigned Class": "label 1"}
{"Entry Sequence": "TGGGACGTTA", "Target Desc": "ATP", "Assigned Class": "label 1"}
{"Entry Sequence": "GTAAGAATGG", "Target Desc": "ATP", "Assigned Class": "label 1"}

Input: Has GCAGCACGCA a recorded switch fluorescence ratio greater than or equal to 1?
Output: label 1

Input: Given the entry CCGGGAGTAC , answer whether its switch fluorescence ratio meets or surpasses 1.
Output: label 1
